Here, each record is paired with measured CRF1R EC50 data.
Target: CRF1R
Assay: cell-based or functional assay
Ends that are not written are not given here.
Please respond with the number in µM and leave the unit unwritten.

Consider the reported CRF1R EC50 for these binders:
SQEPPISLDLPLYLLREVLEMTKADQLAQQAHSNRKLLDIA-NH2 [SEQ ID NO 101] :: 0.1
ZGPPISIDLPHHLLRKMIEIEKQEKEKQQAANNRLLLDTI (C-terminal amide) [SEQ ID NO 205] :: 0.127

Read the next record carefully.
[in] Look up and report measured CRF1R EC50 for this entry: SQEPPISLDLTFHLLREVLEQARARAAREQATTNARILARV-NH2 [SEQ ID NO 157]
[out] 0.1

Source of measurements: patent US20030148956A1
